All values here come from the supplement of paper PMC9112550.

# System: Escherichia coli TOP10
# PROTOCOL: shrunken log2 fold change of peptide-encoding DNA abundance (4.5 h post-induction vs induction); higher = less antimicrobial activity (less host growth inhibition)
# TEST_CONTEXT: time post-induction: 4.5 h; library: site-saturation at positions 5, 18, 19, 20
Assign class by shrunken log2 fold change: not lower than -0.1 means 1.0; lower than -0.1 means 0.0.

Answered examples (2):
| SEQUENCE_CODE | GROUP |
| --- | --- |
| RRIRHRPPRLPRPRPRPLNWPRP | 1.0 |
| RRIRKRPPRLPRPRPRPDMCPRP | 1.0 |

Does the sequence RRIRNRPPRLPRPRPRPIYYPRP have recorded shrunken log2 fold change that is -0.1 or more?
0.0

Does the sequence RRIRCRPPRLPRPRPRPDPGPRP have recorded shrunken log2 fold change that is -0.1 or more?
1.0

Does the sequence RRIRARPPRLPRPRPRPEWWPRP have recorded shrunken log2 fold change that is -0.1 or more?
1.0

----------
# Test system: Escherichia coli TOP10
# PROTOCOL: shrunken log2 fold change of peptide-encoding DNA abundance (4.5 h post-induction vs induction); higher = less antimicrobial activity (less host growth inhibition)
# TEST_CONTEXT: time post-induction: 4.5 h; library: site-saturation at positions 5, 18, 19, 20
MEASURE: shrunken log2 fold change
Hey, just send me the number, nothing else.

Solved cases (3 shown):
| SEQUENCE_CODE | ENDPOINT_RESULT |
| --- | --- |
| RRIRERPPRLPRPRPRPTMQPRP | 0.0612 |
| RRIRHRPPRLPRPRPRPVKAPRP | -0.0779 |
| RRIRPRPPRLPRPRPRPISFPRP | -0.101 |

Please give the measured shrunken log2 fold change for this sequence: RRIRPRPPRLPRPRPRPSKQPRP
-0.116

Please give the measured shrunken log2 fold change for this sequence: RRIRERPPRLPRPRPRPISPPRP
-0.356

----------
# Test system: Escherichia coli TOP10
# PROTOCOL: shrunken log2 fold change of peptide-encoding DNA abundance (4.5 h post-induction vs induction); higher = less antimicrobial activity (less host growth inhibition)
# TEST_CONTEXT: time post-induction: 4.5 h; library: site-saturation at positions 5, 18, 19, 20
MEASURE: shrunken log2 fold change
Hey, just send me the number, nothing else.

| SEQUENCE_CODE | shrunken log2 fold change |
| --- | --- |
| RRIRMRPPRLPRPRPRPMIWPRP | 0.237 |
| RRIRDRPPRLPRPRPRPSLVPRP | -0.0908 |

Now let's try a different one.
Please give the measured shrunken log2 fold change for this sequence: RRIRERPPRLPRPRPRPPCYPRP
-0.396

----------
# System: Escherichia coli TOP10
# PROTOCOL: shrunken log2 fold change of peptide-encoding DNA abundance (4.5 h post-induction vs induction); higher = less antimicrobial activity (less host growth inhibition)
# TEST_CONTEXT: time post-induction: 4.5 h; library: site-saturation at positions 5, 18, 19, 20
Assign class by shrunken log2 fold change: not lower than -0.04 means Fulfilled; lower than -0.04 means Not fulfilled.

Answered examples (5):
| SEQUENCE_CODE | GROUP |
| --- | --- |
| RRIRIRPPRLPRPRPRPACKPRP | Not fulfilled |
| RRIRQRPPRLPRPRPRPHHGPRP | Not fulfilled |
| RRIRYRPPRLPRPRPRPQNMPRP | Not fulfilled |
| RRIRFRPPRLPRPRPRPRDYPRP | Not fulfilled |
| RRIRQRPPRLPRPRPRPQVHPRP | Fulfilled |

Does the sequence RRIRKRPPRLPRPRPRPYCSPRP have recorded shrunken log2 fold change that is -0.04 or more?
Fulfilled

Does the sequence RRIRHRPPRLPRPRPRPNRCPRP have recorded shrunken log2 fold change that is -0.04 or more?
Not fulfilled

Does the sequence RRIRWRPPRLPRPRPRPEDFPRP have recorded shrunken log2 fold change that is -0.04 or more?
Fulfilled

Does the sequence RRIRYRPPRLPRPRPRPCGPPRP have recorded shrunken log2 fold change that is -0.04 or more?
Not fulfilled

Does the sequence RRIRWRPPRLPRPRPRPKHIPRP have recorded shrunken log2 fold change that is -0.04 or more?
Not fulfilled

Does the sequence RRIRPRPPRLPRPRPRPYGFPRP have recorded shrunken log2 fold change that is -0.04 or more?
Not fulfilled

----------
# System: Escherichia coli TOP10
# PROTOCOL: shrunken log2 fold change of peptide-encoding DNA abundance (4.5 h post-induction vs induction); higher = less antimicrobial activity (less host growth inhibition)
# TEST_CONTEXT: time post-induction: 4.5 h; library: site-saturation at positions 5, 18, 19, 20
Binning rule for recorded shrunken log2 fold change: lower = under -0.04, middle = from -0.04 up to 0.2, upper = 0.2 and over

| SEQUENCE_CODE | GROUP |
| --- | --- |
| RRIRGRPPRLPRPRPRPKCAPRP | upper |
| RRIRMRPPRLPRPRPRPWGCPRP | upper |
| RRIRERPPRLPRPRPRPMAMPRP | middle |
| RRIRWRPPRLPRPRPRPGGYPRP | upper |
| RRIRARPPRLPRPRPRPHPDPRP | upper |
| RRIRMRPPRLPRPRPRPTDCPRP | middle |
| RRIRCRPPRLPRPRPRPSFTPRP | lower |
| RRIRQRPPRLPRPRPRPLDYPRP | middle |
| RRIRNRPPRLPRPRPRPMQQPRP | lower |
| RRIRRRPPRLPRPRPRPACDPRP | upper |

For RRIRARPPRLPRPRPRPVINPRP , which shrunken log2 fold change bin applies?
lower

For RRIRTRPPRLPRPRPRPEIRPRP , which shrunken log2 fold change bin applies?
middle

For RRIRIRPPRLPRPRPRPMAHPRP , which shrunken log2 fold change bin applies?
middle

For RRIRKRPPRLPRPRPRPCFAPRP , which shrunken log2 fold change bin applies?
upper

For RRIRWRPPRLPRPRPRPLQRPRP , which shrunken log2 fold change bin applies?
middle

For RRIRERPPRLPRPRPRPSANPRP , which shrunken log2 fold change bin applies?
lower

For RRIRFRPPRLPRPRPRPDLHPRP , which shrunken log2 fold change bin applies?
lower

For RRIRCRPPRLPRPRPRPLIMPRP , which shrunken log2 fold change bin applies?
lower

For RRIRQRPPRLPRPRPRPTEDPRP , which shrunken log2 fold change bin applies?
middle

For RRIRERPPRLPRPRPRPPEDPRP , which shrunken log2 fold change bin applies?
upper

For RRIRIRPPRLPRPRPRPWKKPRP , which shrunken log2 fold change bin applies?
middle

For RRIRIRPPRLPRPRPRPYLLPRP , which shrunken log2 fold change bin applies?
lower

----------
Each entry below carries its reported shrunken log2 fold change.
# Tested on: Escherichia coli TOP10
# PROTOCOL: shrunken log2 fold change of peptide-encoding DNA abundance (4.5 h post-induction vs induction); higher = less antimicrobial activity (less host growth inhibition)
# TEST_CONTEXT: time post-induction: 4.5 h; library: site-saturation at positions 5, 18, 19, 20

Solved cases (5 shown):
| SEQUENCE_CODE | TESTED_ON | shrunken log2 fold change |
| --- | --- | --- |
| RRIRVRPPRLPRPRPRPIVLPRP | Escherichia coli TOP10 | -0.176 |
| RRIRPRPPRLPRPRPRPYDEPRP | Escherichia coli TOP10 | -0.0606 |
| RRIRARPPRLPRPRPRPAQWPRP | Escherichia coli TOP10 | 0.252 |
| RRIRWRPPRLPRPRPRPIRWPRP | Escherichia coli TOP10 | 0.0855 |
| RRIRTRPPRLPRPRPRPQNQPRP | Escherichia coli TOP10 | -0.584 |

Please give the measured shrunken log2 fold change for this sequence: RRIRCRPPRLPRPRPRPETGPRP
-0.0271

Please give the measured shrunken log2 fold change for this sequence: RRIRARPPRLPRPRPRPKYWPRP
0.233

Please give the measured shrunken log2 fold change for this sequence: RRIRFRPPRLPRPRPRPKLQPRP
-0.0358

----------
# Tested on: Escherichia coli TOP10
# PROTOCOL: shrunken log2 fold change of peptide-encoding DNA abundance (4.5 h post-induction vs induction); higher = less antimicrobial activity (less host growth inhibition)
# TEST_CONTEXT: time post-induction: 4.5 h; library: site-saturation at positions 5, 18, 19, 20
Each entry below carries its reported shrunken log2 fold change.
Hey, just send me the number, nothing else.

Solved cases (4 shown):
| SEQUENCE_CODE | TESTED_ON | ENDPOINT_RESULT |
| --- | --- | --- |
| RRIRPRPPRLPRPRPRPVRCPRP | Escherichia coli TOP10 | 0.545 |
| RRIRQRPPRLPRPRPRPGAGPRP | Escherichia coli TOP10 | 0.451 |
| RRIRIRPPRLPRPRPRPADVPRP | Escherichia coli TOP10 | -0.134 |
| RRIRIRPPRLPRPRPRPYGWPRP | Escherichia coli TOP10 | -0.0644 |

Now let's try a different one.
Form field - read-out: shrunken log2 fold change; system: Escherichia coli TOP10; submitted item: RRIRTRPPRLPRPRPRPIHRPRP;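 further: peptides expressed intracellularly from a pBAD plasmid library in pooled LB shake-flask culture, induced with 0.3% L-arabinose, DNA abundance read by NGS, three biological replicates, DESeq2 with apeglm shrinkage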
-0.00127
